ASSAY TARGET: F508del in NIH 3T3 cells (Homo sapiens, UniProt P13569, DEL508-508)
Construct: expressed in transfected cells
Sequence (P13569 with tags, fused parts or gaps DEL508-508): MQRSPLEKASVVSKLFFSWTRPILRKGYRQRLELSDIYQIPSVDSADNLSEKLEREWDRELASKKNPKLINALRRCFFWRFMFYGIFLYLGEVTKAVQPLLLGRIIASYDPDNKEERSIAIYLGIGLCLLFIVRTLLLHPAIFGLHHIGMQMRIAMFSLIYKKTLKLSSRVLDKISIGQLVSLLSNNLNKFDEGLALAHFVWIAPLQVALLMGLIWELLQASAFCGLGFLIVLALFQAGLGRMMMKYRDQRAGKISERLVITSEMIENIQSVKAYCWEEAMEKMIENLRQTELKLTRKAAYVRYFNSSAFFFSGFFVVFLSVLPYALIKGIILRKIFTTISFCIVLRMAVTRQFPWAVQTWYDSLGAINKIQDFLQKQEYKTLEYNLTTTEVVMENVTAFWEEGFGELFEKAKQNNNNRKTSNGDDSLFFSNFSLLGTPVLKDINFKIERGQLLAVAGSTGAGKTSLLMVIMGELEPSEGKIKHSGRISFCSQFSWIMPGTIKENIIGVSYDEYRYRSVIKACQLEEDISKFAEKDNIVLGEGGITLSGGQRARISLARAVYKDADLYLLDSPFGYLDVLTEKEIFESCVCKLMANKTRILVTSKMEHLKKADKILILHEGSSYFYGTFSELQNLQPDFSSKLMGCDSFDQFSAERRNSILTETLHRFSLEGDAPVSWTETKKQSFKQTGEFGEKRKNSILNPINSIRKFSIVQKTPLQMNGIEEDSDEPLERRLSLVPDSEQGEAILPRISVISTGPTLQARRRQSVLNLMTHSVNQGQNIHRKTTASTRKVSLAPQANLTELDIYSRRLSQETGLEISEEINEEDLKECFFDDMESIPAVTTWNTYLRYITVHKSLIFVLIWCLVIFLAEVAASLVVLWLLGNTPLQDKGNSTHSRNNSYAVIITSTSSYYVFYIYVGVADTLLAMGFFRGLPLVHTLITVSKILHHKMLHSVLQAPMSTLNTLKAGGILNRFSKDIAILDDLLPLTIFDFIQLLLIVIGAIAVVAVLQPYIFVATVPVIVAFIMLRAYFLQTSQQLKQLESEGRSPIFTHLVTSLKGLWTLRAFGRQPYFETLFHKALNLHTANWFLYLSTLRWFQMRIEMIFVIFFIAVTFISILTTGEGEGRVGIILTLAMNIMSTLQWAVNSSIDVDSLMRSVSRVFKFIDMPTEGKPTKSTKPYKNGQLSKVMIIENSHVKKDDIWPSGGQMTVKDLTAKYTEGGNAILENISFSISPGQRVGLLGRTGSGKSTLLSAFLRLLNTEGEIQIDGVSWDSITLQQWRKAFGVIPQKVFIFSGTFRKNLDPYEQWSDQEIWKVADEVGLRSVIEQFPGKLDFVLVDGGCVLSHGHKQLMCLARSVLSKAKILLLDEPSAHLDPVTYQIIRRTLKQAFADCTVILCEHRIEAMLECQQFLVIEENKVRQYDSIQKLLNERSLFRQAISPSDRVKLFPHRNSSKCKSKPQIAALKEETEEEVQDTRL
PROCEDURE DETAILS: 3T3 assay: membrane potential optical assay for F508del correction
Format: cell-based, mouse
EXPERIMENTAL SETUP: F508del NIH 3T3 cells, compound incubation 18-24 hours at 37° C., forskolin activation; read-out: 3T3 EC50
I'd be grateful if you could share measured EC50 for these entries.

# example entries with known answers
Cc1cccc(C)c1-c1cc2nc(n1)NS(=O)(=O)c1cccc(c1)NC(=O)[C@@H]1C[C@@H](CN(CCC3CC3)C1)O2 | < 1000 nM
Cc1cccc(C)c1-c1cc2nc(n1)NS(=O)(=O)c1cccc(c1)NC(=O)[C@@H]1C[C@@H](CN(C(=O)OCCC(C)C)C1)O2 | < 1000 nM
Cc1cccc(C)c1-c1cc2nc(n1)NS(=O)(=O)c1cccc(c1)NC(=O)C1CNCC(C1)O2 (stereo not shown) | 3000 to 30000 nM

// next item, EC50 requested
Request: # lookup: EC50 of Cc1cccc(C)c1-c1cc2nc(n1)NS(=O)(=O)c1cccc(c1)NC(=O)c1cc(ccc1Cl)O2
Response: < 1000 nM

----------
Hi there, I'd appreciate the recorded pEC50 for every entry that follows.
ASSAY TARGET: F508del in NIH 3T3 cells (Homo sapiens, UniProt P13569, DEL508-508)
Construct: expressed in transfected cells
PROCEDURE DETAILS: 3T3 assay: membrane potential optical assay for F508del correction
Type: cell-based, mouse
EXPERIMENTAL SETUP: F508del NIH 3T3 cells, compound incubation 18-24 hours at 37° C., forskolin activation; read-out: 3T3 EC50
pEC50: −log10 of the molar value.

Cc1cccc(C)c1-c1cc2nc(n1)NS(=O)(=O)c1cccc(c1)NC(=O)c1cccc(c1Cl)O2 | > 6.00

Could you report pEC50 for every entry in the following list?
1. Cc1cccc(C)c1-c1cc2nc(n1)NS(=O)(=O)c1cccc(c1)NC(=O)C(N)CCO2 (stereo not shown)
2. Cc1cccc(C)c1-c1cc2nc(n1)NS(=O)(=O)c1cccc(c1)NC(=O)[C@@H]1C[C@@H](CN(CCC3(C(F)(F)F)CC3)C1)O2
3. Cc1cccc(C)c1-c1cc2nc(n1)NS(=O)(=O)c1cccc(c1)NC(=O)C1CC(CN(C(=O)OC(C)(C)C)C1)O2 (stereo not shown) [Compound 123]
4. Cc1cccc(C)c1-c1cc2nc(n1)NS(=O)(=O)c1cccc(c1)NC(=O)c1cc(ccc1NC1CCCCC1N)O2 (stereo not shown)
5. Cc1cccc(C)c1-c1cc2nc(n1)NS(=O)(=O)c1cccc(c1)NC(=O)C(NC(=O)OC(C)(C)C)CCO2 (stereo not shown)
6. Cc1cccc(C)c1-c1cc2nc(n1)NS(=O)(=O)c1cccc(c1)NC(=O)[C@@H]1C[C@@H](CN(C(=O)CC(C)(C)C)C1)O2
7. Cc1cccc(C)c1-c1cc2nc(n1)NS(=O)(=O)c1cccc(c1)NC(=O)[C@@H]1C[C@@H](CN(CCC(C)(C)C)C1)O2
8. Cc1cccc(C)c1-c1cc2nc(n1)NS(=O)(=O)c1cccc(c1)NC(=O)C1CCCC(C1)O2 (mixture of isomers)

Response:
["5.52 to 6.00", "> 6.00", "> 6.00", "5.52 to 6.00", "> 6.00", "> 6.00", "> 6.00", "> 6.00"]

Required: pEC50, one value per compound below.
1. Cc1ccccc1-c1cc2nc(n1)NS(=O)(=O)c1cccc(c1)NCc1cccc(c1)O2
2. Cc1cccc(C)c1-c1cc2nc(n1)NS(=O)(=O)c1cccc(c1)NC(=O)[C@H]1C[C@H](CN(C(=O)OC(C)(C)C)C1)O2 (single isomer, unassigned)
3. Cc1cccc(C)c1-c1cc2nc(n1)NS(=O)(=O)c1cccc(c1)NC(=O)c1cccc(c1C)O2 (single isomer, unassigned) [Compound 60]

Response:
1: > 6.00; 2: > 6.00; 3: > 6.00

Request: Form field: reported pEC50 of Cc1cccc(C)c1-c1cc2nc(n1)NS(=O)(=O)c1cccc(c1)NC(=O)c1cc(ccc1N1CCC(O)CC1)O2
Response: 4.52 to 5.52

----------
ASSAY TARGET: CFTR-mediated chloride transport in human intestinal epithelial enteroid cells (Homo sapiens, UniProt P13569)
Sequence (P13569 with tags, fused parts or gaps DEL508-508): as above
PROCEDURE DETAILS: Membrane potential dye, Enteroid Assay A
Format: cell-based
EXPERIMENTAL SETUP: enteroid cells, 18-24 hours incubation, acute 10 μM forskolin and 300 nM ivacaftor; read-out: Ent. A EC50
MEASURED ATTRIBUTE: EC50

Cc1cccc(C)c1-c1cc2nc(n1)NS(=O)(=O)c1cccc(c1)NC(=O)[C@@H]1C[C@@H](CN(C(=O)OCCC(C)C)C1)O2 [Compound 8] | < 1000 nM
Cc1cccc(C)c1-c1cc2nc(n1)NS(=O)(=O)c1cccc(n1)NC(=O)C1CC(CN(CCC(C)(C)C3CC3)C1)O2 (centres unmarked) [Compound 15] | < 1000 nM
Cc1cccc(C)c1-c1cc2nc(n1)NS(=O)(=O)c1cccc(c1)NC(=O)[C@@H]1C[C@@H](CN(CCC3CC3)C1)O2 [Compound 28] | < 1000 nM
Cc1cccc(C)c1-c1cc2nc(n1)NS(=O)(=O)c1cccc(n1)NC(=O)C1CC(CN(C(=O)OC(C)(C)C)C1)O2 (centres unmarked) [Compound 18] | 3000 to 30000 nM
Cc1ccc2cc1Oc1cc(-c3c(C)cccc3C)nc(n1)NS(=O)(=O)c1cccc(c1)NC(=O)CC2 [Compound 66] | 1000 to 3000 nM

List EC50 for every entry below, keeping the order given.
1. Cc1cccc(C)c1-c1cc2nc(n1)NS(=O)(=O)c1cccc(c1)NC(=O)[C@@H]1C[C@@H](CN(CCCC(C)(C)C)C1)O2 [Compound 22]
2. Cc1ccc2cc1Oc1cc(-c3c(C)cccc3C)nc(n1)NS(=O)(=O)c1cccc(c1)NC2=O [Compound 57]
3. Cc1cccc(C)c1-c1cc2nc(n1)NS(=O)(=O)c1cccc(c1)NC(=O)[C@@H]1C[C@@H](CN(C(=O)C3(C(F)(F)F)CC3)C1)O2 [Compound 36]
4. Cc1cccc(C)c1-c1cc2nc(n1)NS(=O)(=O)c1cccc(c1)NC(=O)[C@@H]1C[C@@H](CN(CCC3CCOCC3)C1)O2 [Compound 38]
5. O=C1Nc2cccc(c2)S(=O)(=O)Nc2nc(cc(-c3cccc4ccccc34)n2)Oc2cccc1c2 [Compound 58]
6. Cc1cccc(C)c1-c1cc2nc(n1)NS(=O)(=O)c1cccc(n1)NC(=O)C1CC(CN(C(=O)OC(C)(C)C)C1)O2 (centres unmarked) [Compound 13]
7. Cc1ccc2cc1C(=O)Nc1cccc(c1)S(=O)(=O)Nc1nc(cc(-c3c(C)cccc3C)n1)O2 [Compound 111]

Response:
["< 1000 nM", "< 1000 nM", "< 1000 nM", "1000 to 3000 nM", "1000 to 3000 nM", "< 1000 nM", "3000 to 30000 nM"]

Would you be so kind as to report EC50 for each listed record?
1. CCN1C[C@@H]2C[C@H](C1)C(=O)Nc1cccc(c1)S(=O)(=O)Nc1nc(cc(-c3c(C)cccc3C)n1)O2 [Compound 39]
2. Cc1cccc(C)c1-c1cc2nc(n1)NS(=O)(=O)c1cccc(c1)NC(=O)C1CC(CN(C(=O)OC(C)(C)C)C1)O2 (centres unmarked) [Compound 123]

Response:
["3000 to 30000 nM", "< 1000 nM"]

----------
ASSAY TARGET: CFTR-mediated chloride transport in human intestinal epithelial enteroid cells (Homo sapiens, UniProt P13569)
PROCEDURE DETAILS: Membrane potential dye, Enteroid Assay A
Format: cell-based
EXPERIMENTAL SETUP: % of chloride transport of triple combination control (3 μM N-[(6-amino-2-pyridyl)sulfonyl]-6-(3-fluoro-5-isobutoxy-phenyl)-2-[(4S)-2,2,4-trimethylpyrrolidin-1-yl]pyridine-3-carboxamide, 3 μM tezacaftor, 300 nM acute ivacaftor)
MEASURED ATTRIBUTE: Ent. A Max Activity (%)

Observe how each entry below is paired with its result.
Cc1cccc(C)c1-c1cc2nc(n1)NS(=O)(=O)c1cccc(c1)NC(=O)C1CC(CN(C(=O)OC(C)(C)C)C1)O2 (stereo not shown) [Compound 124] | ++ (++ is 30-60%)
Cc1cccc(C)c1-c1cc2nc(n1)NS(=O)(=O)c1cccc(c1)NC(=O)[C@@H]1C[C@@H](CN(CCC3(C(F)(F)F)CC3)C1)O2 [Compound 27] | +++ (+++ is >60%)
Cc1cccc(C)c1-c1cc2nc(n1)NS(=O)(=O)c1cccc(c1)NC(=O)C1CN(C(=O)OC(C)(C)C)CCC1O2 (stereo not shown) [Compound 78] | ++ (++ is 30-60%)
Cc1cccc(C)c1-c1cc2nc(n1)NS(=O)(=O)c1cccc(c1)NC(=O)[C@@H]1C[C@@H](CN(CCN(C)C)C1)O2 [Compound 20] | + (+ is <30%)
Cc1cccc(C)c1-c1cc2nc(n1)NS(=O)(=O)c1cccc(c1)NC(=O)c1cc(ccc1Cl)O2 [Compound 55] | +++ (+++ is >60%)
Cc1cccc(C)c1-c1cc2nc(n1)NS(=O)(=O)c1cccc(c1)NC(=O)[C@@H]1C[C@@H](CN(C(=O)CC(C)(C)C)C1)O2 [Compound 45] | +++ (+++ is >60%)

Report Ent. A Max Activity (%) for every entry below.
1. Cc1cccc(C)c1-c1cc2nc(n1)NS(=O)(=O)c1cccc(c1)NC(=O)[C@@H]1C[C@@H](CN(CC3C4(CC4)C34CC4)C1)O2 [Compound 6]
2. Cc1cccc(C)c1-c1cc2nc(n1)NS(=O)(=O)c1cccc(c1)NC(=O)[C@@H]1C[C@@H](CN(S(=O)(=O)CC(C)(C)C)C1)O2 [Compound 19]
3. Cc1cccc(C)c1-c1cc2nc(n1)NS(=O)(=O)c1cccc(c1)NC(=O)C1CNCC(C1)O2 (stereo not shown) [Compound 52]
4. Cc1cccc(C)c1-c1cc2nc(n1)NS(=O)(=O)c1cccc(c1)NC(=O)[C@@H]1C[C@@H](CN(CCC3CC3)C1)O2 [Compound 28]
5. Cc1cccc(C)c1-c1cc2nc(n1)NS(=O)(=O)c1cccc(c1)NC(=O)C1CC(O2)C(C)(C)N(Cc2ccccc2)C1 (single isomer, unassigned) [Compound 73]

Response:
1. +++ (+++ is >60%)
2. ++ (++ is 30-60%)
3. + (+ is <30%)
4. ++ (++ is 30-60%)
5. + (+ is <30%)

Hi team, please reply with Ent. A Max Activity (%) for each item in this list.
1. Cc1ccc2cc1Oc1cc(-c3c(C)cccc3C)nc(n1)NS(=O)(=O)c1cccc(c1)NC2=O [Compound 57]
2. Cc1cccc(C)c1-c1cc2nc(n1)NS(=O)(=O)c1cccc(n1)NC(=O)[C@H]1C[C@H](CN(C(=O)OC(C)(C)C)C1)O2 (single isomer, unassigned) [Compound 17]

Response:
1. ++ (++ is 30-60%)
2. + (+ is <30%)

Provide Ent. A Max Activity (%) for all items below, preserving their order.
1. Cc1cccc(C)c1-c1cc2nc(n1)NS(=O)(=O)c1cccc(c1)NC(=O)[C@H]1C[C@H](CN1C(=O)OC(C)(C)C)O2 [Compound 79]
2. Cc1cccc(C)c1-c1cc2nc(n1)NS(=O)(=O)c1cccc(c1)NC(=O)[C@@H]1C[C@@H](CN(CC3C(C)(C)C3(C)C)C1)O2 [Compound 31]
3. Cc1cccc(C)c1-c1cc2nc(n1)NS(=O)(=O)c1cccc(c1)NC(=O)[C@H]1C[C@@H](CN(C(=O)NC(C)(C)C)C1)O2 [Compound 42]

Response:
1. + (+ is <30%)
2. ++ (++ is 30-60%)
3. + (+ is <30%)

Hey, just so you know, these numbers are from patent US20230416275A1.
